Provenance of the data: patent US20090311217A1

target-desc: PI3K-gamma (Homo sapiens, UniProt P48736)
Sequence (P48736 whole entry, species assumed): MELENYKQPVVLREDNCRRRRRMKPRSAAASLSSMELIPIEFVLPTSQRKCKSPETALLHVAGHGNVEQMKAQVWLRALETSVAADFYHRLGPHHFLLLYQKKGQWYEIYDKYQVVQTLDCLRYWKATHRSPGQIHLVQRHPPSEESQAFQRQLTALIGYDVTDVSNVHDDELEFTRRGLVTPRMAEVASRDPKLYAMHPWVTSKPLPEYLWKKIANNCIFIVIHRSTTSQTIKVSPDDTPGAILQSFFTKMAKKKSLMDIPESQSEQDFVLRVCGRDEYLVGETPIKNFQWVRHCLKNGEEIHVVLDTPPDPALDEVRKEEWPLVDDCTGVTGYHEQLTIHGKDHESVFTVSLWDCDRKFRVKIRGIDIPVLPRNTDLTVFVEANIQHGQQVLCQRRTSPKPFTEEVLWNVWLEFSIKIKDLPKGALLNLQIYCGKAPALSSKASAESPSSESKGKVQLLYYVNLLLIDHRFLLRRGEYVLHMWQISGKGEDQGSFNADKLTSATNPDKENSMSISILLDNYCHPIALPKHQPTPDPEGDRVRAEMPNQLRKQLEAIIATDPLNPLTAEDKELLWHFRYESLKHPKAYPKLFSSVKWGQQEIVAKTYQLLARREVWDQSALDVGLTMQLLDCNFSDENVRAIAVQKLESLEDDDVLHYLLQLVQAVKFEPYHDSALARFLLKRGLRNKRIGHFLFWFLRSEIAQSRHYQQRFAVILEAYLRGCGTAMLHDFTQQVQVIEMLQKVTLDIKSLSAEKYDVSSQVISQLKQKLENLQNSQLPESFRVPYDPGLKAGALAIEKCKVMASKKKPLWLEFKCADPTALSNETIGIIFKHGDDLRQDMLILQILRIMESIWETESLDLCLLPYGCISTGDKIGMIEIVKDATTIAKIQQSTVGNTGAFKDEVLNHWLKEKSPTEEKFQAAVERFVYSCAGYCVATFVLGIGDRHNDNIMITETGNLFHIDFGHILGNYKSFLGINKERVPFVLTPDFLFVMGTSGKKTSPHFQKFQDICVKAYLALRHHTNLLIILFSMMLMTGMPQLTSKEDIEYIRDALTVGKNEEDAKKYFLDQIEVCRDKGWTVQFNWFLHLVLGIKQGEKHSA
assay-info: PI3K-gamma fluorescence polarization assay
Assay type: biochemical
details: PI3Kγ Avg. IC50
Answer each item with its documented pIC50.
One number for each entry, as −log10 of the molar value.

Below are 4 compounds. Give each one its pIC50.
1. COc1ccc2c(c1)c(/C=C1\Oc3cc(O)cc(O)c3C1=O)c(C(F)(F)F)n2CC(=O)N(C)C
2. COc1cc(F)c2[nH]c(-c3c(C)nn(C)c3C)c(/C=C3\Oc4ccc(NC(=O)Nc5ccc(C(=O)N6CCC(N(C)C)CC6)cc5)cc4C3=O)c2c1
3. COc1ccc2[nH]c(-c3c(C)nn(C)c3C)c(/C=C3\Oc4ccc(NC(=O)Nc5ccc(C(=O)N6CCOCC6)cc5)cc4C3=O)c2c1
4. Cn1cc(/C=C2\Oc3cc(O)cc(O)c3C2=O)c2c(-c3cccc(F)c3)cccc21

[out]
6.80
8.54
8.56
5.71

Below are 7 compounds. Give each one its pIC50.
1. CNC(=O)Nc1ccc2c(c1)C(=O)/C(=C/c1c[nH]c3c(C#N)cc(OC)cc13)O2
2. CNC(=O)Nc1ccc2c(c1)C(=O)/C(=C/c1c(C3CCC3)n(CCN3CCN(C)CC3)c3ccc(OC)cc13)O2
3. CCNC(=O)Nc1ccc2c(c1)C(=O)/C(=C/c1cn(CCCN(C)C)c3ccc(OC)cc13)O2
4. COc1ccc2c(c1)c(/C=C1\Oc3cc(O)cc(O)c3C1=O)c(C(=O)N(C)C)n2CCO
5. COc1ccc2c(c1)c(/C=C1\Oc3cc(O)cc(O)c3C1=O)c(C1CC1)n2CCN1CCC(O)C1 (centres unmarked)
6. COc1cc(F)c2[nH]c(-c3c(C)nn(C)c3C)c(/C=C3\Oc4ccc(NC(=O)NCCN5CCCC5)cc4C3=O)c2c1
7. COc1ccc(-c2cccc3[nH]cc(/C=C4\Oc5cc(O)cc(O)c5C4=O)c23)cc1

[out]
1. 5.81
2. 6.68
3. 5.67
4. 7.22
5. 7.49
6. 8.20
7. 6.12

Below are 2 compounds. Give each one its pIC50.
1. CNCCNC(=O)Nc1ccc2c(c1)C(=O)/C(=C/c1c(-c3c(C)nn(C)c3C)[nH]c3c(F)cc(OC)cc13)O2
2. COc1ccc(NC(=O)Nc2ccc3c(c2)C(=O)/C(=C/c2cn(CCCN(C)C)c4ccc(OC)cc24)O3)cc1

[out]
8.45
5.81

# pIC50 of O=C1/C(=C/c2c(-c3ccccc3)[nH]c3ccccc23)Oc2c1ccc(O)c2O = 5.83

----------
target-desc: PI3K-alpha (Homo sapiens, UniProt P42336)
Sequence (P42336 whole entry, species assumed): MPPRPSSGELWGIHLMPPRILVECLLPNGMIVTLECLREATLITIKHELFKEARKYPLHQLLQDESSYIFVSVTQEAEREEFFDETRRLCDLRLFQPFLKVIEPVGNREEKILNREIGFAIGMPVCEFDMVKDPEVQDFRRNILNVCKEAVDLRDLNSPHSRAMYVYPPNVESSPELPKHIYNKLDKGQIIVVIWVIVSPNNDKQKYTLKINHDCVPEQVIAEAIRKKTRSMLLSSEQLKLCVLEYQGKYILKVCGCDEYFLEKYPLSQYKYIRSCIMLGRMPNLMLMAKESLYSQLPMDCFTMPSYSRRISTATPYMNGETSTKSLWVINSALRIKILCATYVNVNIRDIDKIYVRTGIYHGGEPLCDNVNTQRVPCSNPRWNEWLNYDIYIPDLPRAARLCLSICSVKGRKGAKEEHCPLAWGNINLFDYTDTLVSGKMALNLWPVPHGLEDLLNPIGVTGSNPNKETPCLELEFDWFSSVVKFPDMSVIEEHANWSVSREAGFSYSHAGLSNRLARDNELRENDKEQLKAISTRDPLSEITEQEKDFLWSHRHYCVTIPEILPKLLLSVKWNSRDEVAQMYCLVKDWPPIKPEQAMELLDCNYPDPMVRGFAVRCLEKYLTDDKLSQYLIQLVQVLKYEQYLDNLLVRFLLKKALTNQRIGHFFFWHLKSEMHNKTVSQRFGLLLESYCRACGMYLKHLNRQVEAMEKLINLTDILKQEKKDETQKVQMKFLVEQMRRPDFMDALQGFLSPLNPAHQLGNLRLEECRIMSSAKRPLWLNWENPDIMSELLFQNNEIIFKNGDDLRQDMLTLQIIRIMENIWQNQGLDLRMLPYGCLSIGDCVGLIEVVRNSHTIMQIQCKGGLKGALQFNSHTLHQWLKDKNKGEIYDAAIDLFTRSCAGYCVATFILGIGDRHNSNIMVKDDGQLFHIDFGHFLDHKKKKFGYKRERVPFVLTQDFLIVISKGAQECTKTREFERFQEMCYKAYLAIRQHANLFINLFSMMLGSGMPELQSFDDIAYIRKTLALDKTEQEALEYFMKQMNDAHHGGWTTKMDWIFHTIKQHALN
Sequence (P27986 whole entry partner, species assumed): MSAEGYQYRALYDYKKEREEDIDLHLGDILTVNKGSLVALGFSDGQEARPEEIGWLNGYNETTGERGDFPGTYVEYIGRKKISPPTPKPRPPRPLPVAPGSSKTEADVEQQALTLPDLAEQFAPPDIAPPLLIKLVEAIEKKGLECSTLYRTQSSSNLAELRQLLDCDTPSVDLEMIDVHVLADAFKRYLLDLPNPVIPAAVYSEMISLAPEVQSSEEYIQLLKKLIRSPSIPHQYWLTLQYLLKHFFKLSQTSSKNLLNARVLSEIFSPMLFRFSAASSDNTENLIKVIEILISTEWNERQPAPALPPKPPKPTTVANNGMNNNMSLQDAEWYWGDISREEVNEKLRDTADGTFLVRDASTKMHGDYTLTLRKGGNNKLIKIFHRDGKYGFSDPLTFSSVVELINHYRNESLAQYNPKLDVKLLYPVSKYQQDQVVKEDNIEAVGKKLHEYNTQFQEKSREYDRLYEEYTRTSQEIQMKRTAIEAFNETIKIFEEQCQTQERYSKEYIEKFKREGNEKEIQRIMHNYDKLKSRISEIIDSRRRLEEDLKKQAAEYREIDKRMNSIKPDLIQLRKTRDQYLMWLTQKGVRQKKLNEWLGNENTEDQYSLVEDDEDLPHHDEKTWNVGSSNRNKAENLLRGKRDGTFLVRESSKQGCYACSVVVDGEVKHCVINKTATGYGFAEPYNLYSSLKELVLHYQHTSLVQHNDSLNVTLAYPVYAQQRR
assay-info: PI3K-alpha fluorescence polarization assay
Format: biochemical
details: read-out: PI3Kα Avg. IC50
property-measured: pIC50
One number for each entry, as −log10 of the molar value.

O=C1C(=Cc2c(-c3ccccc3)n(Cc3cccnc3)c3ccccc23)Oc2cc(O)cc(O)c21
5.80

Below are 4 compounds. Give each one its pIC50.
1. CNC(=O)Nc1ccc2c(c1)C(=O)/C(=C/c1c(-c3c(C)nn(C)c3C)n(CCN(C)CCN(C)C)c3ccc(OC)cc13)O2
2. COc1ccc2[nH]c(C)c(CC3Oc4cc(O)cc(O)c4C3=O)c2c1 (stereo not drawn)
3. COc1ccc2[nH]c(-c3c(C)nn(C)c3C)c(/C=C3\Oc4ccc(NC(=O)Nc5ccc(C(=O)N6CCOCC6)cc5)cc4C3=O)c2c1
4. CC(C)Oc1ccc(-c2cccc3c2c(/C=C2\Oc4cc(O)cc(O)c4C2=O)cn3C)cc1

[out]
1: 8.26; 2: 5.42; 3: 9.70; 4: 5.56

----------
target-desc: PI3K-alpha (Homo sapiens, UniProt P42336)
assay-info: PI3K-alpha fluorescence polarization assay
Format: biochemical
details: read-out: PI3Kα Avg. IC50
property-measured: pIC50
Answers are plain numbers, as −log10 of the molar value.

Answered examples (5):
CCn1c(C)c(/C=C2\Oc3ccc(NC(=O)Nc4ccc(OCCCNC)cc4)cc3C2=O)c2cc(OC)ccc21 [Compound 683]
8.78
Cn1c(-c2ccccn2)c(C=C2Oc3cc(O)cc(O)c3C2=O)c2ccccc21 [Example 223]
5.44
COc1ccc2c(c1)c(C=C1Oc3cc(O)cc(O)c3C1=O)c(C)n2CCCCl [Example 88]
8.01
CC(C)NC(=O)c1ccc(-c2cccc3c2c(/C=C2\Oc4cc(O)cc(O)c4C2=O)cn3C)cc1 [Example 395]
6.24
CCCc1noc(-c2[nH]c3ccc(OC)cc3c2/C=C2\Oc3ccc(NC(=O)NC)cc3C2=O)n1 [Compound 593]
7.90

Below are 2 compounds. Give each one its pIC50.
1. O=C1C(=Cc2c[nH]c3c(Br)cccc23)Oc2cc(O)cc(O)c21 [Example 244]
2. O=C1C(=Cc2c[nH]c3cccc(OCc4ccccc4)c23)Oc2cc(O)cc(O)c21 [Example 243]

[out]
1. 5.71
2. 5.98

----------
target-desc: PI3K-alpha (Homo sapiens, UniProt P42336)
assay-info: PI3K-alpha fluorescence polarization assay
Assay type: biochemical
details: read-out: PI3Kα Avg. IC50
pIC50: −log10 of the molar value.
Kindly return Met if reported pIC50 is no lower than 7; return Not met if it is lower.

Example entries begin here.
COc1ccc2c(c1)c(/C=C1\Oc3cc(O)cc(O)c3C1=O)c(C(=O)N(C)C)n2CC(=O)N(C)C
Not met
COc1ccc2c(c1)c(/C=C1\Oc3ccc(NC(=O)NCCN)cc3C1=O)cn2CCN1CCN(C)CC1
Met
O=C1/C(=C/c2c(-c3ccccc3)[nH]c3ccccc23)Oc2c(O)cccc21
Not met
COc1ccc2c(c1)c(/C=C1\Oc3ccc(NC(=O)NCCCO)cc3C1=O)cn2CCCN(C)C
Not met
COc1ccc2c(c1)c(C=C1Oc3cc(O)cc(O)c3C1=O)c(C)n2CCCCN(C)C
Met
COc1cccc2c1O/C(=C\c1c(C)[nH]c3ccccc13)C2=O
Not met

[in] hey, is pIC50 for this one >= 7? CCc1cc(OC)cc2c(/C=C3\Oc4cc(O)ccc4C3=O)cn(CCCC#N)c12
[out] Not met

----------
target-desc: PI3K-alpha (Homo sapiens)
assay-info: PI3K-alpha fluorescence polarization assay
Assay type: biochemical
details: read-out: PI3Kα Avg. IC50
property-measured: pIC50
Answers are plain numbers, as −log10 of the molar value.

Cn1cc(C=C2Oc3cc(O)cc(O)c3C2=O)c2c(Br)cccc21 [Example 253]
5.85
O=C1C(=Cc2c(-c3ccccc3)n(CCC3CCNCC3)c3ccccc23)Oc2cc(O)cc(O)c21 [Example 158]
5.64

Below are 3 compounds. Give each one its pIC50.
1. COc1ccc2c(c1)c(C=C1Oc3cccc(O)c3C1=O)c(C)n2C [Example 121]
2. O=C1C(=Cc2c(-c3ccc(O)cc3)[nH]c3ccccc23)Oc2cc(O)cc(O)c21 [Example 206]
3. CCn1c(C)c(/C=C2\Oc3ccc(NC(=O)Nc4ccc(C(=O)NCCNC)cc4)cc3C2=O)c2cc(OC)ccc21 [Compound 659]

[out]
1: 6.50; 2: 6.24; 3: 9.52

Below are 3 compounds. Give each one its pIC50.
1. COc1ccc2[nH]c(C)c(C=C3Oc4cccc(O)c4C3=O)c2c1 [Example 86]
2. COc1ccc2c(c1)c(/C=C1\Oc3c(ccc(O)c3F)C1=O)c(C)n2CCN1CCN(C)CC1 [Example 457]
3. COc1cc(F)c2[nH]c(-c3c(C)nn(C)c3C)c(/C=C3\Oc4ccc(NC(=O)Nc5ccc(C(=O)N6CCOCC6)cc5)cc4C3=O)c2c1 [Compound 731]

[out]
1: 6.73; 2: 7.13; 3: 9.26

Below are 2 compounds. Give each one its pIC50.
1. CN(C)c1ccc(-c2[nH]c3ccccc3c2C=C2Oc3cc(O)cc(O)c3C2=O)cc1 [Example 211]
2. Cc1ccc2[nH]cc(/C=C3\Oc4c(ccc(O)c4O)C3=O)c2c1 [Example 65]

[out]
5.97
6.42

Below are 2 compounds. Give each one its pIC50.
1. CN(C)CCCNC(=O)c1ccc(-c2cccc3c2c(/C=C2\Oc4cc(O)cc(O)c4C2=O)cn3C)cc1 [Example 387]
2. COc1ccc2c(c1)c(/C=C1\Oc3cc(O)cc(O)c3C1=O)cn2CC(=O)N(C)C [Example 318]

[out]
5.45
7.08

Below are 2 compounds. Give each one its pIC50.
1. COc1ccc2c(c1)c(/C=C1\Oc3cc(O)c(C)cc3C1=O)c(C)n2CCCN(C)C [Example 459]
2. CNC(=O)Nc1ccc2c(c1)C(=O)/C(=C/c1c(C3=CCNCC3)n(CCN3CCN(C)CC3)c3ccc(OC)cc13)O2 [Compound 607]

[out]
6.72
8.35

Below are 7 compounds. Give each one its pIC50.
1. O=C(Nc1ccc2[nH]cc(C=C3Oc4cc(O)cc(O)c4C3=O)c2c1)c1ccco1 [Example 183]
2. Cc1c(C=C2Oc3cc(O)cc(O)c3C2=O)c2ccccc2n1CCCl [Example 92]
3. COc1ccc2c(c1)c(/C=C1\Oc3cc(CO)ccc3C1=O)cn2CCCN(C)C [Example 424]
4. COc1cc(-c2cncnc2)c2[nH]cc(/C=C3\Oc4cc(O)ccc4C3=O)c2c1 [Compound 498]
5. CNC(=O)Nc1ccc2c(c1)C(=O)/C(=C/c1c(C(=O)N3CCN(C)CC3)[nH]c3ccc(OC)cc13)O2 [Compound 601]
6. CNC(=O)Nc1cc(O)cc2c1C(=O)/C(=C/c1c[nH]c3ccc(OC)cc13)O2 [Compound 526]
7. O=C1C(=Cc2c[nH]c3c([N+](=O)[O-])cccc23)Oc2cc(O)cc(O)c21 [Example 180]

[out]
1: 5.92; 2: 5.69; 3: 5.40; 4: 7.20; 5: 8.10; 6: 5.21; 7: 5.51

Below are 2 compounds. Give each one its pIC50.
1. CCn1c(C)c(/C=C2\Oc3ccc(NC(=O)Nc4ccc(CCCN(C)C)cc4)cc3C2=O)c2cc(OC)ccc21 [Compound 671]
2. CNCCNC(=O)c1ccc(NC(=O)Nc2ccc3c(c2)C(=O)/C(=C/c2c(C)n(C)c4ccc(OC)cc24)O3)cc1 [Compound 661]

[out]
1: 8.40; 2: 9.52

Below are 2 compounds. Give each one its pIC50.
1. CNC(=O)Nc1ccc2c(c1)C(=O)/C(=C/c1c(C)n(CCCN3CCC(O)C3)c3ccc(OC)cc13)O2 (stereo not shown) [Compound 589]
2. COc1ccc2[nH]c(-c3c(C)nn(C)c3C)c(/C=C3\Oc4ccc(NC(=O)Nc5ccc(C(=O)N6CCS(=O)(=O)CC6)cc5)cc4C3=O)c2c1 [Compound 720]

[out]
[8.35, 9.40]
